target: SARS-CoV-2 Spike as carried on rVSV-SARS-CoV-2 pseudovirus and authentic WT virus (SARS-CoV-2, UniProt P0DTC2 14-1273); assay: cell-based or functional assay
Each record here notes measured Neutralization (ng/mL), Pseudovirus IC50.
Write the number in ng/mL without appending the unit.

In the examples that follow, each entry is paired with its recorded Neutralization (ng/mL), Pseudovirus IC50.
Per the record, AB-7 full-length IgG1 (antibody, V domains shown) VH: EVQLEESGTVLARPGASVKMSCKASGYTFTSYWMHWIKQRPGQGLEWIGAIYPGNSDTNYNQKFKDKAKLTAVKSTSSAYMELSSLTNEDSAVYFCTREGIPQLLRSLDYWGQGTSVTVSS VL: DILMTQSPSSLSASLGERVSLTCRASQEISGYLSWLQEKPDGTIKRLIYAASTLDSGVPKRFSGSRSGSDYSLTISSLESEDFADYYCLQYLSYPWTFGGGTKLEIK has Neutralization (ng/mL), Pseudovirus IC50 of 24.6

Per the record, AB-8 full-length IgG1 (antibody, V domains shown) VH: EVQLEESGTVLARPGASVKMSCKASGYTFTTYWMHWIKQRPGQGLEWIGAIYPGNSDTIYNQKFKDKAKLTAVKSTSSAYMELSSLTNEDSAVYFCTREGIPQLLRTLDYWGQGTSVTVSS VL: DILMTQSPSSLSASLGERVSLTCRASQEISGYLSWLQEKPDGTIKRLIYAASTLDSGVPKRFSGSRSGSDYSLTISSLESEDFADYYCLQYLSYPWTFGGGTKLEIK has Neutralization (ng/mL), Pseudovirus IC50 of 0.792

Could you now look at the following binder, please?
Per the record, AB-5 full-length IgG1 (antibody, V domains shown) VH: EVQLEESGTVLARPGASVKMSCKASGYTFTSYWMHWIKQRPGQGLEWIGAIYPGNGDTNYNQKFKDKAKLTAVKSTSSAYMELSSLTNEDSAVYFCTREGIPQLLNTLDVWGQGTSVTVSS VL: DILMTQSPSSLSASLGERVSLTCRASQEISGYLSWLQEKPDGTIKRLIYAASTLDSGVPKRFSGSRSGSDYSLTISSLESEDFADYYCQQYLSYPWTFGGGTKLEIK has Neutralization (ng/mL), Pseudovirus IC50 of 8.25
